// values below are reported TGI
tested on: RXF 393 renal; test: NCI tumour cell line growth inhibition, 48 h

Example entries begin here.
{"columns": ["compound", "TGI"],
 "data": [
  ["CC1=NN(C(=O)Nc2ccccc2)C(=O)C2CCC(=O)N12 (centres undefined)", "> 100 µM"],
  ["COc1ccc(/C=C/c2nccc3ccccc23)cc1OC", "> 10 µM"],
  ["COc1c(Br)cc(CC(N)=O)c(O)c1Br", "> 100 µM"],
  ["COc1ccc(C2=CC3CCC2C3)cc1 (centres undefined)", "> 100 µM"],
  ["Brc1cccc(C=NC23CC4CC(CC(C4)C2)C3)c1", "> 100 µM"],
  ["OCC(O)CC[CH2][Sn]([Br])([c]1ccccc1)[c]1ccccc1 (centres undefined)", "> 100 µM"],
  ["CCC[CH2][Sn]1([CH2]CCC)[O]Cc2nc(C)ccc2[O]1", "19.9 µM"],
  ["CCOC(=O)C(NC(=O)CC(C)C)(N1CCN(c2cc3c(cc2F)c(=O)c(C(=O)O)cn3C2CC2)CC1)C(F)(F)F (centres undefined)", "35.8 µM"],
  ["CC(=S)N=Cc1c(O)cc(C)oc1=O", "> 100 µM"],
  ["COCc1nc2c(OC)cc(-c3nc4ccc(N5CCN(C)CC5)cc4[nH]3)c(OC)c2[nH]1", "51.9 µM"]
]}

INPUT: # query: TGI | item "CC(=O)CNC(=O)OC(C)(C)C" | system: RXF 393 renal
OUTPUT: > 100 µM

INPUT: # query: TGI | item "C=CCCCCCCCCC(=O)[O][Sn]([CH2]CCC)([CH2]CCC)[CH2]CCC" | system: RXF 393 renal
OUTPUT: 0.255 µM

INPUT: # query: TGI | item "COc1ccc(-c2cc(=O)c3c(OC)c(OC)c(OC)cc3o2)cc1" | system: RXF 393 renal
OUTPUT: > 100 µM

INPUT: # query: TGI | item "COc1ccc(-c2cc(=O)c3ccc(O)cc3o2)cc1OC" | system: RXF 393 renal
OUTPUT: 38.6 µM

###

tested on: SK-MEL-5 melanoma; assay: NCI tumour cell line growth inhibition, 48 h
measurement-kind: TGI (µM)
Reply with just the number (in µM).

Example entries begin here.
{"columns": ["compound", "TGI / µM"],
 "data": [
  ["CSC(C1c2ccccc2N(c2ccc(C)cc2)C2=NC(=O)N(C)C(=O)C21Cl)S(=O)(=O)c1ccc(C)cc1 (stereo not given)", 32.3],
  ["CC[CH2][Sn]([CH2]CC)([O]C(=O)c1cccnc1SC)[O][Sn]([CH2]CC)([CH2]CC)[O]C(=O)c1cccnc1SC", 3.26],
  ["C=CC(=O)N1CC2(CCN(c3nc(OC4CCN(CCCOC)CC4)nc4c(OCC(F)(F)F)c(-c5c(C)ccc6[nH]ncc56)c(C5CC5)cc34)CC2)C1", 4.93],
  ["CCC(C)C(=O)OC1CC2(C)C(c3ccoc3)OC(=O)CC23OC2(C)OC34C(OC(=O)C(C)C)C3(O)C(OC(=O)C5(C)OC5C)C5(C)CC3(O)C(C)(C5CC(=O)OC)C14O2 (stereo not given)", 87]
]}

INPUT: Need TGI of "CC/C(=C(/c1ccc(O)cc1)c1ccc(OCCNC)cc1)c1ccccc1" , thanks.
OUTPUT: 3.09

INPUT: Need TGI of CCOC(=O)C1=C(OC(OCC)C(CC)[Se]c2ccccc2)CCCC1 (stereo not given) , thanks.
OUTPUT: 35.8

INPUT: Need TGI of N#Cc1ccc(O)c(C2=NCC(c3cccc(Oc4ccccc4)c3)O2)c1 (stereo not given) , thanks.
OUTPUT: 2.3

INPUT: Need TGI of "CC1(C)C=C(S(=O)(=O)c2ccccc2)Oc2ccccc2O1" , thanks.
OUTPUT: 28.9

INPUT: Need TGI of "O=C(N/N=C/c1cc(Br)cc(Br)c1[O-])c1ccccc1O.O=C(N/N=C/c1cc(Br)cc(Br)c1[O-])c1ccccc1O.[Fe+2]" , thanks.
OUTPUT: 23.4

INPUT: Need TGI of "Clc1ccc(OCc2nnc(CCCCCCCCc3nnc(COc4ccc(Cl)cc4)n3Nc3ccccc3)n2Nc2ccccc2)cc1" , thanks.
OUTPUT: 2.72
